# testSystem: Factor X (FX), P00742
# Sequence (P00742 whole entry, looked up): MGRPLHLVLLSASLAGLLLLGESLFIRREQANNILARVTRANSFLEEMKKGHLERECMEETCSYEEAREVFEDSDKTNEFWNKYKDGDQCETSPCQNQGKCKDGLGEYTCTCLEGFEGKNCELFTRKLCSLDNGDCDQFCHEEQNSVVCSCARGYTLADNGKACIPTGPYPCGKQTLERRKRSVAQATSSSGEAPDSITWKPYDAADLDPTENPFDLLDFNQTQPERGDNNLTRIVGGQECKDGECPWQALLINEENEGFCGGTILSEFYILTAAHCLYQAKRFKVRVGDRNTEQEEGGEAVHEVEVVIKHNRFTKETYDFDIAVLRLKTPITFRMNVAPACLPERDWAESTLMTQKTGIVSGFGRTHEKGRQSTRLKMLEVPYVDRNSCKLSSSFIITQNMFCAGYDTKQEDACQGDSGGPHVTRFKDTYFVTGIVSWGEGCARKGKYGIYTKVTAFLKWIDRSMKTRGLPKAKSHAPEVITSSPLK
The proteins listed here are annotated with their kcat of FX activation by FIXa (Xase complex with FVIIIa, PC/PS vesicles, Ca2+).
Please state the value followed by its unit.

FIXa-R318Y/R338E/R403E/E410N/T412A (protein) chain 1: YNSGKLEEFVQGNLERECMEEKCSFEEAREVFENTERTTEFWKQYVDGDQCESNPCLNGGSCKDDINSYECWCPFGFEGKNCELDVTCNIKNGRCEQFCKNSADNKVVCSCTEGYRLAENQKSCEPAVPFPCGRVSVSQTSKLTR chain 2: VVGGEDAKPGQFPWQVVLNGKVDAFCGGSIVNEKWIVTAAHCVETGVKITVVAGEHNIEETEHTEQKRNVIRIIPHHNYNAAINKYNHDIALLELDEPLVLNSYVTPICIADKEYTNIFLKFGSGYVSGWGRVFHKGYSALVLQYLRVPLVDRATCLESTKFTIYNNMFCAGFHEGGRDSCQGDSGGPHVTEVEGTSFLTGIISWGEECAMKGKYGIYTKVSEYVNWIKNKAKLT
7.8 s⁻¹

Would you kindly look at the next entry?
Query block: Please report the recorded kcat of FX activation by FIXa (Xase complex with FVIIIa, PC/PS vesicles, Ca2+) for FIXa-Y155F/K228N/K247N/N249S (protein) chain 1: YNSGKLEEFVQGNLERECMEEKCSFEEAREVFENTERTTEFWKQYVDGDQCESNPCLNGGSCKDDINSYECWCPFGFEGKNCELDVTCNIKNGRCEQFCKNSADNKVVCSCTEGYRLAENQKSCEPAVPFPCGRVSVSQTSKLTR chain 2: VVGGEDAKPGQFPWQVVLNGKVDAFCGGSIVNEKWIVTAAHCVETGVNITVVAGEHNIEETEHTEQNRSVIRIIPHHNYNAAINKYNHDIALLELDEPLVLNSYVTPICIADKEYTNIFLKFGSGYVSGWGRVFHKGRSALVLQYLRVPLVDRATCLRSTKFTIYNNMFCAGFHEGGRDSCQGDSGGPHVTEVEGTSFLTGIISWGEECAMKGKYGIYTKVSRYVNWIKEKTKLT .
Result block: 4.3 s⁻¹
